Every entry's value here was drawn from patent US20240360228A1.

Biological target: T1, human chemokine (C-C motif) receptor 8 (CCR8) (human, UniProt P51685 1-355)
T1 construct: also called hCCR8
T1 sequence (P51685 whole entry): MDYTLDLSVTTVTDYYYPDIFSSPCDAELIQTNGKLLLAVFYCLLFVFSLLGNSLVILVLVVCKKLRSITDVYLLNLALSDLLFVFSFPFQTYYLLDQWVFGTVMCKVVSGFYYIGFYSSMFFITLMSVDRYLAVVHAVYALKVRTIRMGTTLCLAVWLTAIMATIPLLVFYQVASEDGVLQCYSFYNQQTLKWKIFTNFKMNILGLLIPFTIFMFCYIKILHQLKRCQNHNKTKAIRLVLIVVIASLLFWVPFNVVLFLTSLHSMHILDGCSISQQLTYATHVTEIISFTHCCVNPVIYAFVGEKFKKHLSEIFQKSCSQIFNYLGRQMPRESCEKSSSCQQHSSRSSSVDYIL
Experiment: flow cytometry blocking, human PBMC, CD3+ gate; competitor PE-AB13
measuredAttribute: % Blocking (%)
Numeric answer only, unit % assumed.

Exercise: Which measured % Blocking value corresponds to anti-CCR8 monoclonal antibody AB5 (antibody, V domains shown, Hybridoma monoclonal; also called antibody 5; clone 5) VH: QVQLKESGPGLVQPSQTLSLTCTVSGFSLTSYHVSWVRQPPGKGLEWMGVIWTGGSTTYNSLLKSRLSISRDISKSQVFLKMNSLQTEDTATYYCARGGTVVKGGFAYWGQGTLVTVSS VL: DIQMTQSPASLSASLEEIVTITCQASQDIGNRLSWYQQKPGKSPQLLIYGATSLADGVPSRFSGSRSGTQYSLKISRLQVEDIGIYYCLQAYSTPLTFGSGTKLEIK ?
Key: -5.41

# evaluate next
Exercise: Which measured % Blocking value corresponds to anti-CCR8 monoclonal antibody AB10 (antibody, V domains shown, Hybridoma monoclonal; also called antibody 10; clone 10) VH: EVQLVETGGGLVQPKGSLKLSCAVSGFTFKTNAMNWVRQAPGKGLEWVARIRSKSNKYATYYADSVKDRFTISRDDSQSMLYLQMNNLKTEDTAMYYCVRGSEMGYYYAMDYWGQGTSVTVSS VL: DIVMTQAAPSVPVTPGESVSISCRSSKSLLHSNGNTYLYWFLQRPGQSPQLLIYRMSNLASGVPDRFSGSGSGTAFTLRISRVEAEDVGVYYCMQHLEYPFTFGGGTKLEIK ?
Key: 88.1
